# Lookup of reported cytotoxicity at 5 days keyed by entry
experiment: Live/Dead cytotoxicity assay, hybridoma supernatant; settings: human
MEASUREMENT_TYPE: cytotoxicity at 5 days

1) C[C@@H]1C[C@@H]([C@H](O)CC2CC(=O)NC(=O)C2)C(=O)[C@@H](C)C1 [Cycloheximide] : 56%
2) [N-]=[N+]=[N-] [NaN3, sodium azide] : 4%
